Cited source: paper PMC7564282

Molecular target: NPR-32 (Caenorhabditis elegans, UniProt O62403)
Assay: NPR-32 competitive binding assay with [3H]CP55,940 on N2 (WT) membrane preparations
Set-up: species or system C. elegans
Details: displacement of 3 nM [3H]CP55,940, N2 (WT) membranes, 5 µM JZL-195 preincubation; apparent Ki by Cheng-Prusoff; 95% CI; read-out: Ki, NPR-32 binding
Description: Worm homogenization and membrane preparation: the animals were collected from NGM plates as described before. The animals were freshly broken/homogenized by tip sonication before the beginning of every assays in S-basal and then a protein estimation was carried out for these samples, by a standard BCA kit (Sigma-Aldrich, St. Louis, MO, USA). […] CP55,940 for 75 min at 30 °C. […] The results were analyzed with GraphPad Prism 5® and expressed as % of [^3H]CP55,940 binding. […]
pKi: −log10 of the molar value.

molecule: CC/C=C\C/C=C\C/C=C\CCCC/C=C\CCCC(=O)NCCO
measured on: NPR-32 (Caenorhabditis elegans, UniProt O62403)
pKi: 6.13

====

Target: FAAH (Sus scrofa, UniProt Q9TUI8)
Sequence (Q9TUI8 1-579): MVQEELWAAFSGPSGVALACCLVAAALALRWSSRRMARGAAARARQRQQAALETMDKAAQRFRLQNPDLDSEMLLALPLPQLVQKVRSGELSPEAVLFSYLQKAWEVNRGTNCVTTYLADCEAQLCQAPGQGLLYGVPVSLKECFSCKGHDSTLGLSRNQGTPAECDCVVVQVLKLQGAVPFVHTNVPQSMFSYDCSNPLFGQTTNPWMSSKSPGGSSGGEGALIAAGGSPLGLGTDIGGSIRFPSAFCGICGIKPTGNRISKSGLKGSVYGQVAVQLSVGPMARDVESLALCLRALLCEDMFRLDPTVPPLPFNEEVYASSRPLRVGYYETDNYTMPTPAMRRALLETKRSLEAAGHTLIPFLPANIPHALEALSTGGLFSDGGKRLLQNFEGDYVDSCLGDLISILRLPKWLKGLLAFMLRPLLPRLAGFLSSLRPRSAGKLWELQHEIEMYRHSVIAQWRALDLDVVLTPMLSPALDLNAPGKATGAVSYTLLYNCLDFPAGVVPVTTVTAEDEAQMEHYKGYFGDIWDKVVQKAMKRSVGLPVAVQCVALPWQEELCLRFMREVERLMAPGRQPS

molecule: CC/C=C\C/C=C\C/C=C\C/C=C\CCCCCCC(=O)NCCO
IC50: > 100 µM

====

Target: NPR-32 (Caenorhabditis elegans, UniProt O62403)
Sequence (O62403 1-440): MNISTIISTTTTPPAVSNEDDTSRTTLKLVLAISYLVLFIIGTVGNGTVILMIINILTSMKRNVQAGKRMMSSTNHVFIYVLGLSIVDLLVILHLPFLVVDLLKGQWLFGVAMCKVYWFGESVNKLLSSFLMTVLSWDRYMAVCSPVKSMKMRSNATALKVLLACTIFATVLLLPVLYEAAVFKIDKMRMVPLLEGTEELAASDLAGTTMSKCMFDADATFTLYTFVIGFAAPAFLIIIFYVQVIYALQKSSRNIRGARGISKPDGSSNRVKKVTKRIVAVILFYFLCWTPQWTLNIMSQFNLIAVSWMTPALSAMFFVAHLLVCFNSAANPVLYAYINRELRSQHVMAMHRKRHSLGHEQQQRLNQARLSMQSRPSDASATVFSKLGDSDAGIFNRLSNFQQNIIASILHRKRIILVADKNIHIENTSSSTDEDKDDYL
pKd: −log10 of the molar value.

compound: CCCCCCC(C)(C)c1ccc([C@@H]2C[C@H](O)CC[C@H]2CCCO)c(O)c1 [CP55,940]
pKd: 8.60
